# Tested On: Human SCD-1 (Homo sapiens, UniProt O00767)
# Construct: adding 125 μg of microsomal fraction of HepG2 cells; host or cells: HepG2 human hepatocarcinoma cells (microsomal fraction)
# Sequence (O00767 whole entry): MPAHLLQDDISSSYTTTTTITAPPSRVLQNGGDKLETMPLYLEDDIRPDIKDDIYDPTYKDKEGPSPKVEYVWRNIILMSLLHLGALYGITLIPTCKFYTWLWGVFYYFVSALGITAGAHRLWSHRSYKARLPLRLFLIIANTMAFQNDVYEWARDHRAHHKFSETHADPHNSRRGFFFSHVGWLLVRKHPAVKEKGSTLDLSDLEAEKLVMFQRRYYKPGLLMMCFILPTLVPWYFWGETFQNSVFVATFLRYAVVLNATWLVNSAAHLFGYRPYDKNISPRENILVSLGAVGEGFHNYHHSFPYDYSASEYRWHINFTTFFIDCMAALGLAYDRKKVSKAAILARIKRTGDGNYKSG
# Procedure Summary: Human SCD-1 enzymatic activity from microsomes of HepG2 cells (conversion of stearic acid into oleic acid)
# Type: biochemical
# Test Context: 10 μM compound; microsomal fraction of HepG2 cells; relative to carrier 0.1% DMSO; read-out: HSCD-1 (HEPG2) % inh. (10 μM)
# Experimental: In vitro: Human SCD-1 enzymatic activity from microsomes of HepG2 cells after treatment with inhibitory compounds (inhibition %). Human hepatocarcinoma HepG2 cells (ATCC, HB-8065) are grown to confluence and then trypsinized. […] The enzymatic reaction measures the conversion of stearic acid (a C18:0 fatty acid) into oleic acid (C18:1 fatty acid) by SCD-1. […] Enzymatic activity is calculated in picomoles of stearic acid converted into oleic acid per minute and per mg of protein. […]
Tick 1 if inhibition at 10 µM is 60% or greater. Tick 0 if inhibition at 10 µM is less than 60%.

Structure: Cn1c(=O)[nH]nc(N2CCN(C(=O)c3ccc(F)cc3C(F)(F)F)CC2)c1=O
Tested On: Human SCD-1 (Homo sapiens, UniProt O00767)
Label Class: 1

Structure: COc1ccccc1-n1nc(N2CCC(Oc3ccccc3C(F)(F)F)CC2)c(=O)n(C)c1=O
Tested On: Human SCD-1 (Homo sapiens, UniProt O00767)
Label Class: 0

Structure: Cc1ccccc1OC1CCN(c2nn(C)c(=O)n(C)c2=O)CC1
Tested On: Human SCD-1 (Homo sapiens, UniProt O00767)
Label Class: 1

Structure: CCCCn1nc(N2CCC(Oc3ccccc3C(F)(F)F)CC2)c(=O)n(C)c1=O
Tested On: Human SCD-1 (Homo sapiens, UniProt O00767)
Label Class: 1

Structure: Cn1nc(N2CCC(Oc3cc(C(F)(F)F)ccc3Cl)CC2)c(=O)n(C)c1=O
Tested On: Human SCD-1 (Homo sapiens, UniProt O00767)
Label Class: 1

Structure: Cn1c(=O)[nH]nc(N2CCN(Cc3ccc(F)cc3C(F)(F)F)CC2)c1=O
Tested On: Human SCD-1 (Homo sapiens, UniProt O00767)
Label Class: 0

Structure: Cc1ccccc1-n1nc(N2CCC(Oc3ccccc3C(F)(F)F)CC2)c(=O)n(C)c1=O
Tested On: Human SCD-1 (Homo sapiens, UniProt O00767)
Label Class: 0

Structure: Cn1c(=O)[nH]nc(N2CCN(Cc3ccccc3C(F)(F)F)CC2)c1=O
Tested On: Human SCD-1 (Homo sapiens, UniProt O00767)
Label Class: 0
